Source: PubChem BioAssay (NCI)

System: M14 melanoma
Test: NCI tumour cell line growth inhibition, 48 h
Answer each item with its documented TGI.

Let me check: CC[N+]1(C)CCC(O)(c2ccc(Cl)c(Cl)c2)C(C(=O)c2ccc(Cl)c(Cl)c2)C1 (stereo unspecified) , system M14 melanoma, measured TGI is > 10 µM

Entry COC(=O)C1=C(c2cc(OC)c(OC)c(OC)c2)OC(c2ccc(OC)c(OC)c2)C1 (stereo unspecified) ; assay system M14 melanoma; TGI recorded at > 100 µM

Response field TGI (M14 melanoma) for item COc1ccc(C)cc1Nc1nnc(-c2ccccc2N)s1 : > 100 µM

M14 melanoma TGI of CN(C)c1ccc2c(c1)OC(N)=C(C#N)C2c1ccc2c(c1)CCO2 (stereo unspecified) is 11.4 µM

Bench note, M14 melanoma: entry C=C1c2[nH]c3c([N+](=O)[O-])c(OC)ccc3c2CCN1C(C)=O , its TGI = > 100 µM

Measured TGI (M14 melanoma), entry Cc1ccc2c(c1C)C(=O)/C(=C/c1ccccc1C(=O)O)C2 : > 100 µM

Record O=C1c2c(O)cccc2C(C2OC(CO)C(O)C(O)C2O)c2cc(CO)cc(O)c21 (stereo unspecified) has M14 melanoma TGI equal to > 100 µM

Tested system M14 melanoma; TGI recorded for CC1=C2C(=CC(C)(C)C2O)C(=O)C(C)(O)C12CC2 (stereo unspecified) was 0.0602 µM

Field TGI (system: M14 melanoma) for entry Nc1ccccc1CC(O)C(=O)O (stereo unspecified) = > 100 µM

Tested system M14 melanoma; TGI recorded for O=C(COc1ccc(/C=C2\Oc3ccccc3C2=O)cc1)Nc1nc2c(s1)CCCC2 was > 100 µM

Item: CCOc1cc(C2CC(c3ccc(NS(=O)(=O)c4cc([N+](=O)[O-])ccc4C)cc3)=NN2c2ccc([N+](=O)[O-])cc2[N+](=O)[O-])ccc1O (stereo unspecified) | System: M14 melanoma | TGI: 31.6 µM

The reported TGI value, M14 melanoma, for CC1=NN(c2nc(N)nc(/C(C#N)=C/c3cccn3-c3cc(Cl)cc(Cl)c3)n2)C(C)(C)C1 reads > 100 µM

Known value: M14 melanoma TGI of the compound O=C(Nc1ccc(Cl)cc1)Nc1ccc(Nc2nncc3ccccc23)cc1 equals 11.5 µM

M14 melanoma assay, compound COc1c(O)cc(O)c2c(=O)cc(-c3ccccc3)oc12 , recorded TGI = > 100 µM

Per the reported M14 melanoma data, O=c1c2cc(I)ccc2nc(-c2cccs2)n1-c1ccc(O)cc1 has TGI of 29.3 µM

Observed TGI on M14 melanoma, entry COC(=O)c1c(OC(C)=O)ccc2c1c1c(n2C)C(=O)c2ccccc2C1=O , equals > 100 µM

Readout TGI for C1CN(SSN2CCOCC2)CCO1 , test system M14 melanoma, was 48.9 µM

Form field TGI for item C[C@]12CCC3[C@@H](CC[C@@H]4c5nonc5CC[C@]34C)C1C/C(=N/O)C2=O (stereo partly specified) on M14 melanoma: > 100 µM

Case CCN(CC)c1ccc2cc(C(=O)Nc3cccc4ccccc34)c(=N)oc2c1 , M14 melanoma, TGI recorded as > 100 µM

CCOC(=O)c1cnc2oc3ccc(O)cc3c2c1-c1ccccc1 on M14 melanoma gives TGI = > 100 µM

Field TGI (system: M14 melanoma) for entry COc1ccc(-n2c(=O)n(C)c(=O)n2-c2ccc(OC)cc2)cc1 = > 100 µM
